All figures here come from PubChem BioAssay (EPA / NIEHS).

- TEST DESCRIPTION: ATG_GAL4_TRANS: Attagene TRANS-FACTORIAL HepG2 Assay for GAL4 (Internal Marker) (AID 2282976)
- EXPERIMENTAL PARAMETERS: HepG2 Attagene TRANS GAL4 internal marker reporter
Records with an inconclusive call do not appear. Active and inactive are the calls of the source. How the source made its calls: active means hit-call score of the fitted dose curve at least 0.9, where 1 is the maximum; inconclusive means response in the unintended direction; inactive means score below 0.9.
OBSERVATION TYPE: outcome

>  <COMPOUND>
CC(C)c1c(C(=O)Nc2ccccc2)c(-c2ccccc2)c(-c2ccc(F)cc2)n1CC[C@@H](O)C[C@@H](O)CC(=O)O

>  <MEAS VALUE>
inactive

$$$$
>  <COMPOUND>
CC(C)(c1ccc(Oc2ccc(N)cc2)cc1)c1ccc(Oc2ccc(N)cc2)cc1

>  <MEAS VALUE>
inactive

$$$$
>  <COMPOUND>
CCC(=O)O

>  <MEAS VALUE>
inactive

$$$$
>  <COMPOUND>
O=C1OC(=O)c2cc(-c3ccc4c(c3)C(=O)OC4=O)ccc21

>  <MEAS VALUE>
inactive

$$$$
>  <COMPOUND>
CC(=O)CC(C)C

>  <MEAS VALUE>
inactive

$$$$
>  <COMPOUND>
COC(=O)C(F)(F)C(F)(F)C(F)(F)F

>  <MEAS VALUE>
inactive

$$$$
>  <COMPOUND>
COc1ccc(C#N)cc1

>  <MEAS VALUE>
inactive

$$$$
>  <COMPOUND>
C=CC(=O)OCCN(CC)CC

>  <MEAS VALUE>
inactive

$$$$
>  <COMPOUND>
Cc1ccc(C(=O)c2ccccc2)cc1

>  <MEAS VALUE>
inactive

$$$$
>  <COMPOUND>
CCCCCC(C)OC(=O)COc1ccc(Cl)c2cccnc12 (centres undefined)

>  <MEAS VALUE>
inactive

$$$$
>  <COMPOUND>
C=CC(=C)CC/C=C(\C)CCC=C(C)C

>  <MEAS VALUE>
inactive

$$$$
>  <COMPOUND>
c1cc[nH]c1

>  <MEAS VALUE>
inactive

$$$$
>  <COMPOUND>
FC(F)=C(F)C(F)(F)C(F)(F)C(F)(F)C(F)F

>  <MEAS VALUE>
inactive

$$$$
>  <COMPOUND>
CCCCCCCCCCCC

>  <MEAS VALUE>
inactive

$$$$
